Entries annotated with measured max. signal (% of 22G2)
measured.target: T1, human TIGIT on Jurkat cells (TIGIT/NFAT reporter Jurkat cells, BPS Bioscience #60538); Promega TIGIT Effector … (human, UniProt Q495A1 22-244)
T1 sequence (looked up): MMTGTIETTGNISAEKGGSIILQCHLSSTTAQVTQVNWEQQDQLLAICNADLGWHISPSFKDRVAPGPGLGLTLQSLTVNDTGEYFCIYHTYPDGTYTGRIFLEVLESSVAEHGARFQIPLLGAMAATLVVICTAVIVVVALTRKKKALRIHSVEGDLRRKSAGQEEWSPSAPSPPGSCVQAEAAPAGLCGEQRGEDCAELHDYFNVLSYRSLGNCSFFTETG
assay: cell-based or functional assay

>  <binder>
43586p2.E08 (scFv, V domains shown) VH: EVQLLESGGDLVQPGGSLRLSCAASGFTFDDYVMSWVRQAPGKGLEWVSLINWNGDKTYYADSVKDRFTISRDNSKNTLYLQMNSLRAEDTAVYYCARHWIVFQYGLDVWGQGTTVTVSS VL: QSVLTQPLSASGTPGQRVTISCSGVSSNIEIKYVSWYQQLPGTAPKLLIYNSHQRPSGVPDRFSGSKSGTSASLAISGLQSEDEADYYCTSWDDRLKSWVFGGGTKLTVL

>  <max. signal (% of 22G2)>
117 % of 22G2

$$$$
>  <binder>
43586p1.2.G4 (scFv, V domains shown) VH: EVQLLESGGGLVQPGGSLRLSCAASGFTFDDYVMSWVRQAPGKGLEWVSLINWNGDKTYYADSVKGRFTISRDNSKNTLYLQMNSLRAEDTAVYYCARHWIVFQYGLDVWGQGTTVTVSS VL: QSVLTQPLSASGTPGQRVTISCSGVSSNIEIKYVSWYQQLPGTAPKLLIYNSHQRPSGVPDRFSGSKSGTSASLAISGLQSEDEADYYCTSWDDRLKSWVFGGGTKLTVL

>  <max. signal (% of 22G2)>
101 % of 22G2

$$$$
>  <binder>
43352p1.H8 (scFv, V domains shown) VH: DVQLVESGGGVVRPGESLRLSCAASGFNFSTYAMNWVRQAPGEGLEWVSGISGRSSGDTTYYADSVRGWFTVSRDNSKNTLYLQMSSLRAEDTAVYYCARETWIRGYFDYWGLGTLVTVSS VL: QSVLTQPPSASGTPGQRVTISCSGSRSNLGNNLVYWYQQLPGTAPKLLIYFNNERPSGVPDRFSGSKSGTSASLAISGVQSEDEADYYCATWDDSLNGWVFGGGTKLTVL

>  <max. signal (% of 22G2)>
96 % of 22G2

$$$$

Cited source: patent US20230265187A1
